Attribution: ChEMBL document CHEMBL1128083

- Assay: Maximum concentration in plasma at Tmax
- Format: ADME, organism-based
Measured metric: Cmax (ng/mL)
Reply numerically in ng/mL, unit not repeated.

(Q) Provide one value: measured Cmax of N#CC1=C(N2C(=O)CCC2=O)Oc2c(ccc3ccccc23)C1c1cccc([N+](=O)[O-])c1 (stereo not drawn)
(A) 5

(Q) Provide one value: measured Cmax of N#CC1=C(N2C(=O)CCC2=O)Oc2c(ccc3ccccc23)C1c1cccnc1 (stereo not drawn)
(A) 55

(Q) Provide one value: measured Cmax of N#CC1=C(N2C(=O)CCC2=O)Oc2c(ccc3ccccc23)C1c1ccc(F)c(Cl)c1 (stereo not drawn)
(A) 178
